system: S. agalactiae COH-1; experiment: In vitro antimicrobial activity, MIC by broth micro-dilution; type: cell-based; conditions: Streptococcus agalactiae, COH1; S. agalactiae COH-1; read-out: MIC
I'd appreciate it if you could supply MIC values for the items below.

Item: CCCCCCCCCCCCCCCC(=O)N(C)[C@H](CO)C(=O)N[C@H](C)C(=O)NCC(=O)N(C)[C@@H]1C(=O)N[C@@H](C)C(=O)N[C@H](C(=O)N[C@@H](C)C(N)=O)Cc2ccc(O)c(c2)-c2cc1ccc2O Test system: S. agalactiae COH-1 Read-out: MIC Value: ?
> 64 µg/mL

Item: CCCCCCCCCCCCCCCC(=O)N(C)[C@H](CO)C(=O)N[C@H](C)C(=O)NCC(=O)N(C)[C@@H]1C(=O)N[C@@H](C)C(=O)N[C@H](C(=O)N[C@H](C)C(=O)C(=O)N(C)C)Cc2ccc(O)c(c2)-c2cc1ccc2O Test system: S. agalactiae COH-1 Read-out: MIC Value: ?
64 µg/mL

Item: CCCCCCCCCCCCCCCC(=O)N(C)[C@H](CO)C(=O)N[C@H](C)C(=O)NCC(=O)N(C)[C@@H]1C(=O)N[C@@H](C)C(=O)N[C@H](C(=O)N[C@@H](C)C(=O)C(=O)N(C)C)Cc2ccc(O)c(c2)-c2cc1ccc2O Test system: S. agalactiae COH-1 Read-out: MIC Value: ?
32 µg/mL

Item: CCCCCCCCCCCCCCCC(=O)N(C)[C@H](CO)C(=O)N[C@H](C)C(=O)NCC(=O)N(C)[C@@H]1C(=O)N[C@@H](C)C(=O)N[C@H](C(=O)NC(C)C=O)Cc2ccc(O)c(c2)-c2cc1ccc2O (some centres unmarked) Test system: S. agalactiae COH-1 Read-out: MIC Value: ?
64 µg/mL

Item: CCCCCCCCCCCCCCCC(=O)N(C)[C@H](CO)C(=O)N[C@H](C)C(=O)NCC(=O)N(C)[C@@H]1C(=O)N[C@@H](C)C(=O)N[C@H](C(=O)NCC(=O)N2CCCC2C(N)=O)Cc2ccc(O)c(c2)-c2cc1ccc2O (some centres unmarked) Test system: S. agalactiae COH-1 Read-out: MIC Value: ?
32 µg/mL

Item: CCCCCCCCCCCCCCCC(=O)N(C)[C@H](CO)C(=O)N[C@H](C)C(=O)NCC(=O)N(C)[C@@H]1C(=O)N[C@@H](C)C(=O)N[C@H](C(=O)NCC(=O)N2CCC[C@H]2C(=O)O)Cc2ccc(O)c(c2)-c2cc1ccc2O Test system: S. agalactiae COH-1 Read-out: MIC Value: ?
> 64 µg/mL

Item: CCCCCCCCCCCCCCCC(=O)N(C)[C@H](CO)C(=O)N[C@H](C)C(=O)NCC(=O)N(C)[C@@H]1C(=O)N[C@@H](C)C(=O)N[C@H](C(=O)NCC(=O)O)Cc2ccc(O)c(c2)-c2cc1ccc2O Test system: S. agalactiae COH-1 Read-out: MIC Value: ?
> 64 µg/mL

Item: CCCCCCCCCCCCCCCC(=O)N(C)[C@H](CO)C(=O)N[C@H](C)C(=O)NCC(=O)N(C)[C@@H]1C(=O)N[C@@H](C)C(=O)N[C@H](C(=O)O)Cc2ccc(O)c(c2)-c2cc1ccc2O Test system: S. agalactiae COH-1 Read-out: MIC Value: ?
> 64 µg/mL

Item: CCCCCCCCCCCCCCCC(=O)N(C)[C@H](CO)C(=O)N[C@H](C)C(=O)NCC(=O)N(C)[C@@H]1C(=O)N[C@@H](C)C(=O)N[C@H](C(=O)NCC(N)=O)Cc2ccc(O)c(c2)-c2cc1ccc2O Test system: S. agalactiae COH-1 Read-out: MIC Value: ?
> 64 µg/mL

Item: CCCCCCCCCCCCCCCC(=O)N(C)[C@H](CO)C(=O)N[C@H](C)C(=O)NCC(=O)N(C)[C@@H]1C(=O)N[C@@H](C)C(=O)N[C@H](C(=O)N[C@@H](C)C(=O)O)Cc2ccc(O)c(c2)-c2cc1ccc2O Test system: S. agalactiae COH-1 Read-out: MIC Value: ?
> 64 µg/mL

Item: CCCCCCCCCCCCCCCC(=O)N(C)[C@H](CO)C(=O)N[C@H](C)C(=O)NCC(=O)N(C)[C@@H]1C(=O)N[C@@H](C)C(=O)N[C@H](C(=O)N[C@@H](C)C(=O)N2CCC[C@H]2C(=O)O)Cc2ccc(O)c(c2)-c2cc1ccc2O Test system: S. agalactiae COH-1 Read-out: MIC Value: ?
> 64 µg/mL

// provenance: patent US10501493B2
